Test system: MDA-MB-435 melanoma
Measurement Protocol: NCI-60 one-dose screen, 48 h
Assay Setup: 10 µM unless noted
About 83,000 compounds went through this panel and 20% of them were active in at least one assay; those are over-represented in the sample as a whole. Active and inactive are the calls of the source. The calls were made as follows: active = growth percent below 10; inactive = the rest.
Outcome codes: y (active), n (inactive)

In [3]: df
Out[3]:
                                   molecule  group
0  COc1ccc(C(=O)c2cc3c(N)c(C(=O)Nc4ccc(C)cc4)sc3nc2C)cc1      y
1  Cc1cccc(/C=C/c2c(C(=O)/C=C/c3ccccc3)c(C)nc3ccccc23)c1      y
2  N#Cc1ccc2c(c1)C(=O)c1c-2n(CCCN)c(=O)c2cc([N+](=O)[O-])ccc12      y
3        COc1ccc(CNc2c3ccccc3nc3ccccc23)cc1      n
4   COc1cc(OC)c(NC(=O)c2cc3ccccc3cc2O)cc1Cl      n
5                     C/C(=N\O)c1ccc(Cl)cc1      n
6  CC(=O)Oc1ccc(/C(=C(\C)c2ccc(Cl)cc2)c2ccc(OCCN3CCCCC3)cc2)cc1      y
7  CCCCCN1C(=O)/C(=c2\sc3n(c2=O)C2C(NN=3)N(CC)C(=O)N2CC)c2ccccc21 (stereo not given)      y
8   Nc1c(C(=O)Nc2ccccc2F)sc2nc3c(cc12)CCCC3      y
9  CCSc1oc(-c2ccccc2)nc1[P+](c1ccccc1)(c1ccccc1)c1ccccc1      y

Data origin, for the record: PubChem BioAssay (NCI)
